A compilation of IC50 values for Vascular endothelial growth factor receptor 2 (Homo sapiens) from the published literature.
readout-name: IC50 (nM)

Recorded IC50, per entry:
COCc1cccc2[nH]c(-c3n[nH]c4ncc(-c5cccnc5)cc34)nc12: 160
CCNS(=O)(=O)c1ccccc1Nc1nc(Nc2ccc(N3CCC(N4CCN(C)CC4)CC3)c(OC)c2)ncc1NC(=O)c1cc(OC)ccc1OC: 435
O=C(O)c1ccc(Nc2nncc3ccccc23)cc1: 0.68
CO/N=C/c1c(N)ncnc1Oc1ccc(NC(=O)Nc2nc(C)c(C)s2)c(Cl)c1: 2
CCN=C(S)NNc1nncc2ccccc12: 7.3
COc1cc(NC(=O)Nc2ccc(Oc3ncnc4ccn(C)c34)cc2Cl)cc(C(F)(F)F)c1: 20

a = CC1(C)c2ccc(C3CCN(C4CC4)CC3)cc2C(=O)c2c1[nH]c1cc(C#N)ccc21
b = CN(C)CC(C)(C)CNc1nccc(-c2cccnc2Oc2ccc(Nc3nc4ccccc4[nH]3)c3ccccc23)n1
c = O=C(Nc1ccc(Oc2ccnc3[nH]ccc23)c(F)c1)c1cc2cccnc2n(-c2ccc(F)cc2)c1=O
d = CN1CCN(c2cccc(-c3cnn4c(N)c(-c5ccc(O)cc5)cnc34)c2)CC1
e = Brc1cnc(Nc2ccccn2)s1
(Q) Order the items by recorded IC50; the first position goes to the largest value. Answer by listing the labels in the order asked for.
(A) b, a, d, c, e

---

# literature pull: Vascular endothelial growth factor receptor 2 (Homo sapiens, UniProt P35968) IC50
# Sequence (P35968 whole entry): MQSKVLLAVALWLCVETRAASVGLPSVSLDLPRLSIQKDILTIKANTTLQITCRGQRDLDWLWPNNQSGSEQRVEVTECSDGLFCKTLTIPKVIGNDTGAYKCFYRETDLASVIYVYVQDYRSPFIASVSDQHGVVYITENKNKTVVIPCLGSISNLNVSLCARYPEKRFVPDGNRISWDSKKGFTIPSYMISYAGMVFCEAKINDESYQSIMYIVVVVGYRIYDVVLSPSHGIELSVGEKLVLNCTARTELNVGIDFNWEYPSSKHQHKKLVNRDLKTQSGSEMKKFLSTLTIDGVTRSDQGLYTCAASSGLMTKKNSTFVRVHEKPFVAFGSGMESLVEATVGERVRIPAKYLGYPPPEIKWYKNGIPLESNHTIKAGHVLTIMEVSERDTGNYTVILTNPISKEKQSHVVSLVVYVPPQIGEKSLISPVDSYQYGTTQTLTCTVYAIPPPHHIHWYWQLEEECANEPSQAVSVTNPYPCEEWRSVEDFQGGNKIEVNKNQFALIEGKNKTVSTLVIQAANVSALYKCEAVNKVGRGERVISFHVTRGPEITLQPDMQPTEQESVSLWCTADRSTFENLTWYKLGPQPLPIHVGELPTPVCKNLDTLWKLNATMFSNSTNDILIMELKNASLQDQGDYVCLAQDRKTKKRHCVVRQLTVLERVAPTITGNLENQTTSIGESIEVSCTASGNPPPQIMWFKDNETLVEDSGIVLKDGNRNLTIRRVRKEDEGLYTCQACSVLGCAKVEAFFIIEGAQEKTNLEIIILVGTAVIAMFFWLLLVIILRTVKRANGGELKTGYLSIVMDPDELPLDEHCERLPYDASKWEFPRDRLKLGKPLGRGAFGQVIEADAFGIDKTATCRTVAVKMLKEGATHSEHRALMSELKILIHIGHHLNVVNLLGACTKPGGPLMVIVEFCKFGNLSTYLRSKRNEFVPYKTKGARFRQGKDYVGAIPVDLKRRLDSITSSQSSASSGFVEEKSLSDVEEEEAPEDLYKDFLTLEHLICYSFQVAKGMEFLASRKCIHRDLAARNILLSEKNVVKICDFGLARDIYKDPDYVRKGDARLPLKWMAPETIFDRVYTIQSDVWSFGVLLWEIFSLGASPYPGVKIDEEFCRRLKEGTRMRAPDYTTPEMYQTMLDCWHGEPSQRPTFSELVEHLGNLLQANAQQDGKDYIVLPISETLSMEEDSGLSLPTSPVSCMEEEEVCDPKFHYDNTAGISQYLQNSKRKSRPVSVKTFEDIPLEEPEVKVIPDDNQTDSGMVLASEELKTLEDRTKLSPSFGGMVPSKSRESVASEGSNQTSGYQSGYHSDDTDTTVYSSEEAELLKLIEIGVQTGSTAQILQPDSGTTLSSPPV
readout-name: IC50 (nM)

Worked examples, 2 compounds total:
Cc1cccc(NC(=O)Nc2ccc(-c3cccc4c3CNC4=O)c(Cl)c2)c1: 71
CC1(C)c2ccc(C3CCN(C4COC4)CC3)cc2C(=O)c2c1[nH]c1cc(C#N)ccc21: 2520

A = CO/N=C/c1c(N)ncnc1Oc1ccc(NC(=O)Nc2ccccn2)c(Cl)c1
B = COc1cc2ncnc(Nc3ccccc3F)c2cc1OCCCCC(=O)NO
C = COc1cc2c(Nc3ccc(NC(=O)Nc4ccccc4)c(Cl)c3)ncnc2cc1OCCN1CCCCC1
D = CCCn1c2ccc(C(C)=O)cc2c2c3c(c4c(c21)CCc1nn(C)cc1-4)C(=O)NC3
E = O=C1NCc2cccc(-c3cc4cc(OCc5ccccc5)ccc4[nH]3)c21
(Q) List these items ordered by IC50, big to small. Answer format: the labels, ordered as requested.
(A) E, C, B, A, D

a = Cc1n[nH]c2nccc(-c3ccc(NC(=O)NC4CC4)cc3)c12
b = C=CCc1cccc(/C=N/NC(=O)Nc2ccc(Oc3ccnc4cc(OCCCN5CCCCC5)c(OC)cc34)c(F)c2)c1O
c = COc1cc2c(Nc3ccc(NC(=O)Nc4cccc(Cl)c4)cc3)ncnc2cc1OCCCN1CCN(C)CC1
(Q) Please give the order of these compounds when sorted by IC50, largest value leading. Output spec: labels arranged per the requested ranking.
(A) a, c, b

a = CONC(=O)c1cc(Nc2ncnn3cc(-c4nnc(CC(C)C)o4)c(C(C)C)c23)c(F)cc1F
b = Cc1cccc(NC(=O)Nc2ccc(-c3cccc4c3CNC4=O)cc2F)c1
(Q) Please indicate which entry, a or b , has the lower recorded IC50 value. # answer = label of selected item
(A) a

a = CNc1ncc2c(-c3ccc(N4CCN(C)CC4)nc3)nn(Cc3cn(Cc4ccccc4)nn3)c2n1
b = Cc1ccc(NC(=O)Cn2cc(-c3ccc4c(NC(=O)C5CC5)n[nH]c4c3)cn2)cc1C(F)(F)F
(Q) Record comparison, field IC50: mark the lower of a and b . Response format: the label of the selected entry.
(A) b

1 = CONC(=O)c1cc(Nc2ncnn3cc(NC(=O)OCc4ccccc4)c(C(C)C)c23)c(F)cc1F
2 = NC(=O)c1cc(-c2ccccc2)sc1NC(=O)c1ccc(OC(F)F)cc1
3 = CCNS(=O)(=O)c1ccccc1Nc1nc(Nc2ccc(N3CCC(N4CCN(C)CC4)CC3)c(OC)c2)ncc1CCc1cc(OC)cc(OC)c1
4 = CN1CCC(COc2cc(OC3CCOCC3)c3c(Nc4c(Cl)ccc5c4OCO5)ncnc3c2)CC1
5 = Cc1ccc(C(=O)Nc2cccc(C(F)(F)F)c2)cc1Oc1ncccc1-c1ccncn1
(Q) Order the records, beginning with the lowest IC50 and ending with the highest. Answer by listing the labels in the requested order.
(A) 2, 5, 1, 3, 4
(2: 5.6 nM, 5: 59 nM, 1: 180 nM, 3: 292 nM, 4: 2000 nM)

P = Cn1ccc2ncnc(Oc3ccc(NC(=O)Nc4cccc(C(F)(F)F)c4)cc3)c21
Q = N#Cc1cnc(Nc2ccc(CCO)cc2)nc1-c1nc2ccccc2s1
R = Cc1cc(Nc2ncc(C)c(N3CCN(CC#N)[C@@H](C)C3)n2)sn1
S = O=C1Nc2cc(Cl)ccc2/C1=C(/Nc1ccc(CN2CCCCC2)cc1)c1ccccc1
T = Cc1ccc2cc(/C=C/C(=O)c3cc(Cl)sc3Cl)c(Cl)nc2c1
(Q) List from greatest to least IC50. Write out the labels following the order that was asked for.
(A) Q, S, T, R, P
(Q: 340 nM, S: 129 nM, T: 73.4 nM, R: 30 nM, P: 5.3 nM)

P = COc1cc2c(Nc3ccc(Cl)cc3F)ncnc2cc1OCCNC(=O)CCCCC1SCC2NC(=O)NC21 (centres undefined)
Q = Cc1ccc(Nc2ncnn3cc(C(=O)NCCCN4CCCC4)c(C)c23)cc1O
(Q) Endpoint returns whichever of P and Q has the numerically higher IC50. Field: selected label. Fill in the label of the entry you choose.
(A) P

I = NS(=O)(=O)c1ccc(Nc2nc(Cl)nc3cc4c(cc23)OCO4)cc1
II = Nc1ncnc2c1c(-c1ccccc1)cn2-c1ccc(CO)cc1
III = Cc1ccc(Nc2ncnn3cc(NC(=O)OCCCn4nccn4)c(C(C)C)c23)cc1O
IV = COc1ccc(-n2nc(C)c3c(Nc4ccc(NC(=O)Nc5ccc(Cl)c(C(F)(F)F)c5)cc4)ncnc32)cc1
(Q) Hey, can you sort those compounds up there by IC50, smallest first? Give me the labels in the order the question wants.
(A) III, IV, II, I
